# targetSystem: 5-hydroxytryptamine receptor 1D (Homo sapiens, UniProt P28221)
# Sequence (P28221 whole entry): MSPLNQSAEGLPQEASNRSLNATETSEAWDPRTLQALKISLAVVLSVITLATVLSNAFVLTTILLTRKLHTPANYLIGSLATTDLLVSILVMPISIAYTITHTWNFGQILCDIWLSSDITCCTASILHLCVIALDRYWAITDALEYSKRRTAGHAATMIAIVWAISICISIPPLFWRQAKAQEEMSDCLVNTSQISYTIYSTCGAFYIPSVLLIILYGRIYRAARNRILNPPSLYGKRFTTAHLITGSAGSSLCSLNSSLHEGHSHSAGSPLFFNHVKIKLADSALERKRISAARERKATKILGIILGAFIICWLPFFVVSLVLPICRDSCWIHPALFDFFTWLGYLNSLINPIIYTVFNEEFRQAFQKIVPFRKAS
# methodDescription: GPCRScan assay: inhibition of 5-HT1D
# Design: radioligand conc. used [nm] 1.0 – 2.0, parental cells HEKT
# conditionDetails: read-out: Ki
measuredProperty: Ki (µM)
The answer is to be given in µM; state only the numeric part.

Qu. Consider the compound shown here: `COc1ccc(CC[C@@H](OC(=O)[C@H]2CCCCN2C(=O)[C@@H](c2cc(OC)c(OC)c(OC)c2)C2CCCCC2)c2cccc(OCCN3CCOCC3)c2)cc1OC` What is its recorded Ki?
Ans. 3.13

###

# targetSystem: D(2) dopamine receptor (Homo sapiens, UniProt P14416)
# Sequence (P14416 whole entry): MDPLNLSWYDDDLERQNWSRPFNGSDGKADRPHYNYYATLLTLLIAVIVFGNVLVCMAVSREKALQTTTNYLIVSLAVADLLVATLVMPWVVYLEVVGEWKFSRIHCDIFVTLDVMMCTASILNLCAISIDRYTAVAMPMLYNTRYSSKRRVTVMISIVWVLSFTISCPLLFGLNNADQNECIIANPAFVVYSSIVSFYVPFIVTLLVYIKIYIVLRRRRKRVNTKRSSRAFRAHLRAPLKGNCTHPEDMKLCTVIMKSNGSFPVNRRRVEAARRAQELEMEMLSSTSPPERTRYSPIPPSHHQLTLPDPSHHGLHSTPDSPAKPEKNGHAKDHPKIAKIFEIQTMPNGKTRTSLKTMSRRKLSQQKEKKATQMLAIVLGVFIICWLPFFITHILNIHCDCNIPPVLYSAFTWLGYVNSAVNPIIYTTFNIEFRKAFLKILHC
# methodDescription: GPCRScan assay: inhibition of D2
measuredProperty: Ki

Qu. GET /values?readout=Ki&item= `COc1ccc(CC[C@@H](OC(=O)[C@@H]2CCCCN2C(=O)[C@H](c2cc(OC)c(OC)c(OC)c2)C2CCCCC2)c2cccc(OCCN3CCOCC3)c2)cc1OC`
Ans. > 10 µM

###

# targetSystem: Histamine H4 receptor (Homo sapiens)
# Sequence (Q9H3N8 whole entry): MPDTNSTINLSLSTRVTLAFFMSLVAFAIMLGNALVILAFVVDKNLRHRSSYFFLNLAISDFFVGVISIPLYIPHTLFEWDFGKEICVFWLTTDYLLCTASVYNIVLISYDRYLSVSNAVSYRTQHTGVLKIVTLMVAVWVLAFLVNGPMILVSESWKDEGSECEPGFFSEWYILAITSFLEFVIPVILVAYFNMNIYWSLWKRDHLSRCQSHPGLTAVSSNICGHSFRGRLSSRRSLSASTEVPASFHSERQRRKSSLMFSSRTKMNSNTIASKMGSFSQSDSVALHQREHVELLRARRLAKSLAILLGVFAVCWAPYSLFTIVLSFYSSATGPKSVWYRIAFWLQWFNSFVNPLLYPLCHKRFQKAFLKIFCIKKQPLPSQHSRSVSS
measuredProperty: Ki (µM)
Give the value, in units of µM, as a plain number.

Qu. Fill in the recorded Ki for this compound, with Histamine H4 receptor (Homo sapiens) as test system: `COc1ccc(CC[C@@H](OC(=O)[C@@H]2CCCCN2C(=O)[C@H](c2cc(OC)c(OC)c(OC)c2)C2CCCCC2)c2cccc(OCCN3CCOCC3)c2)cc1OC`
Ans. 3.38

###

# targetSystem: Sodium-dependent noradrenaline transporter (Homo sapiens, UniProt P23975)
# Sequence (P23975 whole entry): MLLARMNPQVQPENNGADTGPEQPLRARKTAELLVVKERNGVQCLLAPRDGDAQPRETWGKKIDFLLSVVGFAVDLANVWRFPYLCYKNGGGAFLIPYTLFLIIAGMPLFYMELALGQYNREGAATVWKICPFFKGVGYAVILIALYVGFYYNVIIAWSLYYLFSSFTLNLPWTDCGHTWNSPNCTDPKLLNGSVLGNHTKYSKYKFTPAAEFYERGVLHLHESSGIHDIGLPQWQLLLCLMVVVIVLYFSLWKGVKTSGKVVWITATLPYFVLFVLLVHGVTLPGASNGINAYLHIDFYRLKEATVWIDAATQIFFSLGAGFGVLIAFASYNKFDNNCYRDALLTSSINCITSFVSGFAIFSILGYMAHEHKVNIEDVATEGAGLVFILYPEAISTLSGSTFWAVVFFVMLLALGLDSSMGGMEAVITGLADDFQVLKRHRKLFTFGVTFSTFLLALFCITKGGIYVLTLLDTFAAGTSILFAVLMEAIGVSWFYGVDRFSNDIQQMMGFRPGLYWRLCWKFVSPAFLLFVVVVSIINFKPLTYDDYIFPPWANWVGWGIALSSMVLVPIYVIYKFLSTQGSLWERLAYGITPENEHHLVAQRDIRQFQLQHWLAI
measuredProperty: Ki

Qu. Returns the measured Ki for the input compound. Input: `COc1ccc(CC[C@@H](OC(=O)[C@H]2CCCCN2C(=O)[C@@H](c2cc(OC)c(OC)c(OC)c2)C2CCCCC2)c2cccc(OCCN3CCOCC3)c2)cc1OC`
Ans. > 10 µM

###

# targetSystem: Sodium-dependent dopamine transporter (Homo sapiens)
# Sequence (Q01959 whole entry): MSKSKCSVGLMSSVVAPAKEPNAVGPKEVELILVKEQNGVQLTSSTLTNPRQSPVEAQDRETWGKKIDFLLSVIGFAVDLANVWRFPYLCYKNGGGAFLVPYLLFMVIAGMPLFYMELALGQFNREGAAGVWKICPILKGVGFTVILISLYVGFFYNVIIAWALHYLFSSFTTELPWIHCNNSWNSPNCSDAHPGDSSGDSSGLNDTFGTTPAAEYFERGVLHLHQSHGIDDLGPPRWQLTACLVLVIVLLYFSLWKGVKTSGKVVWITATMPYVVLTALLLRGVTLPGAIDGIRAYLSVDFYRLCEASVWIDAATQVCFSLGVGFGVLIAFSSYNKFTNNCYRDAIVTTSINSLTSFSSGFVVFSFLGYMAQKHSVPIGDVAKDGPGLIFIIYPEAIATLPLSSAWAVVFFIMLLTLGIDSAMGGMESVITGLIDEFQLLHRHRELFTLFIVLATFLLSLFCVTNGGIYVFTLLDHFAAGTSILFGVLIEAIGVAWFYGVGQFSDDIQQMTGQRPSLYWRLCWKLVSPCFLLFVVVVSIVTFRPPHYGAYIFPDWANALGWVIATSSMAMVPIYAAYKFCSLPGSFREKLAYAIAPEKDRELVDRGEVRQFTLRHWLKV
# methodDescription: GPCRScan assay: inhibition of DAT
# Set-up: radioligand conc. used [nm] 3.6 – 16.0, parental cells stable HEK
# conditionDetails: read-out: Ki
measuredProperty: pKi
Scale for pKi: -log10 of concentration given in mol/L; no unit attached.

Qu. Fill blank: measured pKi of the compound `COc1ccc(CC[C@@H](OC(=O)[C@H]2CCCCN2C(=O)[C@@H](c2cc(OC)c(OC)c(OC)c2)C2CCCCC2)c2cccc(OCCN3CCOCC3)c2)cc1OC` is ____.
Ans. 5.66

###

# targetSystem: Histamine H2 receptor (Homo sapiens)
# Sequence (P25021 whole entry): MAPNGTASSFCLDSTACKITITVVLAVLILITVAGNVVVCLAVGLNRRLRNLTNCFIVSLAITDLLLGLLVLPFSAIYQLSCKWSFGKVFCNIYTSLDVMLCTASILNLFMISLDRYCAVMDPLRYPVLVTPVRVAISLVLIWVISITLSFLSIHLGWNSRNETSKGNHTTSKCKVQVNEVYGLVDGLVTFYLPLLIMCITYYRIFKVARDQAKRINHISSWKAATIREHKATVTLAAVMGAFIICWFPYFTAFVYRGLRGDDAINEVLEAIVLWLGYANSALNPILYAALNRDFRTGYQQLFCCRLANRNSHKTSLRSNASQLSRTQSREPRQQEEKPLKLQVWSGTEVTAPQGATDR
# methodDescription: GPCRScan assay: inhibition of H2
# Set-up: radioligand conc. used [nm] 0.02 – 0.05, parental cells Stable HEK
# conditionDetails: read-out: Ki
measuredProperty: Ki (nM)
Enter your answer as a number in nM; do not include the unit.

Qu. # query: Ki of entry `COc1ccc(CC[C@@H](OC(=O)[C@H]2CCCCN2C(=O)[C@@H](c2cc(OC)c(OC)c(OC)c2)C2CCCCC2)c2cccc(OCCN3CCOCC3)c2)cc1OC`
Ans. 2960

Taken from ChEMBL document CHEMBL5058648.
